Below, each entry is listed with its recorded protein stability index.
B1: POLD4 (parent)
chain: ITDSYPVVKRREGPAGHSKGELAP

variants of: B1; assay: protein stability index of a GFP-peptide fusion (GPS, HEK-293T) (PSI 1-6); higher = more stable; settings: c terminus: a fixed tail appended;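 also: lentivirally expressed fusions sorted by FACS into six bins by GFP to DsRed ratio, PSI derived from sequencing read proportions per bin multiplied by bin number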
Please respond with just the number, no unit label.

Before answering, review these 3 worked examples.
itemSequence	measValue
ITDSYPVVKRRHGPAGHSKGELAP [E12H]	2.72
ITDSYPVVKRREGPAGHSKGELVP [A23V]	2.8
ITDSYPVVKRRTGPAGHSKGELAP [E12T]	3.41

The record that follows has no protein stability index shown yet.
*Q* Please report protein stability index for the following variant: ITDSYPVVKRMEGPAGHSKGELAP [R11M]
*A* 2.87
